Where these numbers come from: ChEMBL document CHEMBL4732158

# procedure summary: Cardiotoxicity in human iPSC derived cardiomyocytes assessed as change in heart rate at 1 nM measured over 2 hrs by multi-electrode array relative to control
# Assay type: toxicity, cell-based
# assay conditions: stem cell-derived cardiomyocyte, 0.001 µM
Classification scheme (Activity): low class: < -20%; middle class: ≥ -20% and < -10%; high class: ≥ -10%

| compound | group label |
| --- | --- |
| CCCCCC[C@@H]1CCc2cc([C@H]3CC[C@](N)(CO)C3)ccc2C1 | high class |
| CCSCCCC1CCc2cc([C@H]3CC[C@](N)(CO)C3)ccc2C1 (single isomer, unassigned) | low class |
| COCCCCCCC1CCc2cc([C@H]3CC[C@](N)(CO)C3)ccc2C1 (stereo in doubt; 25a) | middle class |
| CCC/C=C/CC1CCc2cc([C@H]3CC[C@](N)(CO)C3)ccc2C1 (single isomer, unassigned) | high class |
| CC/C=C/CC[C@@H]1CCc2cc([C@H]3CC[C@](N)(CO)C3)ccc2C1 | middle class |
| CCCCCSC[C@H]1CCc2cc([C@H]3CC[C@](N)(CO)C3)ccc2C1 | low class |
| CCCCCOC1CCc2cc([C@H]3CC[C@](N)(CO)C3)ccc2C1 (stereo in doubt; 10b) | middle class |
| CCOCCCC1CCc2cc([C@H]3CC[C@](N)(CO)C3)ccc2C1 (single isomer, unassigned) | middle class |
| CCCCCCOC1CCc2cc([C@H]3CC[C@](N)(CO)C3)ccc2C1 (stereo in doubt; 30a) | low class |
| CCCSCCC1CCc2cc([C@H]3CC[C@](N)(CO)C3)ccc2C1 (single isomer, unassigned) | low class |
| CC/C=C\CC[C@@H]1CCc2cc([C@H]3CC[C@](N)(CO)C3)ccc2C1 | low class |
| COCCCCCCC1CCc2cc([C@H]3CC[C@](N)(CO)C3)ccc2C1 (stereo in doubt; 25b) | low class |
| COCCCCCC1CCc2cc([C@H]3CC[C@](N)(CO)C3)ccc2C1 (single isomer, unassigned; 24) | high class |
| CCC/C=C\CC1CCc2cc([C@H]3CC[C@](N)(CO)C3)ccc2C1 (single isomer, unassigned) | middle class |
| COCCCCC1CCc2cc([C@H]3CC[C@](N)(CO)C3)ccc2C1 (stereo in doubt; 13b) | middle class |

###

# procedure summary: Pulmonary toxicity in Lewis rat assessed as fold elevation of BAL protein content at 1 mg/kg, po by chemistry analyzer based analysis relative to control
# Format: organism-based
# assay conditions: in vivo
Friendly reminder: fold change (FC) below 1 is Yes, at or above is No.

| molecule | group label |
| --- | --- |
| CCCCCCOC1CCc2cc([C@H]3CC[C@](N)(CO)C3)ccc2C1 (stereo in doubt; 30b) | No |
| CCCOCCOC[C@H]1CCc2cc([C@H]3CC[C@](N)(CO)C3)ccc2C1 | No |
| CCCCCOC[C@@H]1CCc2cc([C@H]3CC[C@](N)(CO)C3)ccc2C1 | No |
| CCCCCOC1CCc2cc([C@H]3CC[C@](N)(CO)C3)ccc2C1 (stereo in doubt; 10a) | Yes |
| CCCCCCCOC1CCc2cc([C@H]3CC[C@](N)(CO)C3)ccc2C1 (stereo in doubt; 33a) | Yes |
| COCCOC[C@@H]1CCc2cc([C@H]3CC[C@](N)(CO)C3)ccc2C1 | No |
| CCCCOC[C@@H]1CCc2cc([C@H]3CC[C@](N)(CO)C3)ccc2C1 | Yes |
| CCCOCCOC1CCc2cc([C@H]3CC[C@](N)(CO)C3)ccc2C1 (some centres undefined) | No |
| CCCCCC[C@@H]1CCc2cc([C@H]3CC[C@](N)(CO)C3)ccc2C1 | No |
| CCCCSC[C@@H]1CCc2cc([C@H]3CC[C@](N)(CO)C3)ccc2C1 | No |
| CCCCCOC[C@H]1CCc2cc([C@H]3CC[C@](N)(CO)C3)ccc2C1 | No |
| CCCCCCOC1CCc2cc([C@H]3CC[C@](N)(CO)C3)ccc2C1 (stereo in doubt; 30a) | No |
| CC/C=C/CC[C@@H]1CCc2cc([C@H]3CC[C@](N)(CO)C3)ccc2C1 | No |

###

# procedure summary: Cardiotoxicity in human iPSC derived cardiomyocytes assessed as change in heart rate at 10 nM measured over 2 hrs by multi-electrode array relative to control
# Format: toxicity, cell-based
# assay conditions: stem cell-derived cardiomyocyte, 0.01 µM
metric name: Activity

| compound | recorded measurement |
| --- | --- |
| COCCCCCCC1CCc2cc([C@H]3CC[C@](N)(CO)C3)ccc2C1 (stereo in doubt; 25a) | -32% |
| COCCCCCC1CCc2cc([C@H]3CC[C@](N)(CO)C3)ccc2C1 (single isomer, unassigned; 24) | -23% |
| CC/C=C/CC[C@@H]1CCc2cc([C@H]3CC[C@](N)(CO)C3)ccc2C1 | -33% |
| CCCCSC[C@@H]1CCc2cc([C@H]3CC[C@](N)(CO)C3)ccc2C1 | -46% |
| CCC/C=C/CC1CCc2cc([C@H]3CC[C@](N)(CO)C3)ccc2C1 (single isomer, unassigned) | -23% |
| COCCCCCC1CCc2cc([C@H]3CC[C@](N)(CO)C3)ccc2C1 (single isomer, unassigned; 23) | -40% |
| CCCSCC[C@@H]1CCc2cc([C@H]3CC[C@](N)(CO)C3)ccc2C1 | -42% |
| CCCCCC[C@@H]1CCc2cc([C@H]3CC[C@](N)(CO)C3)ccc2C1 | -33% |

###

Listing of entries alongside the reported Ratio AUC.
# procedure summary: AUC ratio in orally dosed cynomolgus monkey blood assessed as phosphate metabolite to parent compound
# Assay type: ADME, organism-based, Macaca fascicularis
# assay conditions: in vivo, po

| compound | qualifier | Ratio AUC |
| --- | --- | --- |
| COCCCCCC1CCc2cc([C@H]3CC[C@](N)(CO)C3)ccc2C1 (single isomer, unassigned; 24) | < | 0.1 |
| CCCCCCCCc1ccc(CCC(N)(CO)CO)cc1 | = | 5.9 |
| CCCCCC[C@@H]1CCc2cc([C@H]3CC[C@](N)(CO)C3)ccc2C1 | = | 0.3 |
| CCOCCCC1CCc2cc([C@H]3CC[C@](N)(CO)C3)ccc2C1 (single isomer, unassigned) | = | 0.73 |

###

# procedure summary: Antimigratory activity against human T cells assessed as inhibition of S1P-induced T cell migration preincubated for 10 mins followed by addition of S1P measured after 120 mins by calcein-AM dye based fluorescence analysis
# Format: functional

| molecule | IC50 / nM |
| --- | --- |
| CCCCCC[C@@H]1CCc2cc([C@H]3CC[C@](N)(COP(=O)(O)O)C3)ccc2C1 | 2.5 |
| CCCCCCCCc1ccc(CCC(N)(CO)COP(=O)(O)O)cc1 (configuration not stated) | 1.2 |

###

# procedure summary: Drug concentration in Lewis rat blood assessed as concentration of parent compound at 2 mg/kg, po measured at 24 hrs by LC-MS/MS analysis
# Type: ADME, organism-based
# assay conditions: in vivo, read-out: Ct
Use true (1) when the recorded concentration is no lower than 80 nM; use false (0) when it is lower.

| molecule | group label |
| --- | --- |
| CCCCSCC1CCc2cc([C@H]3CC[C@](N)(CO)C3)ccc2C1 (single isomer, unassigned) | true (1) |
| COCCCCC1CCc2cc([C@H]3CC[C@](N)(CO)C3)ccc2C1 (stereo in doubt; 13a) | true (1) |
| CCSCCCC1CCc2cc([C@H]3CC[C@](N)(CO)C3)ccc2C1 (single isomer, unassigned) | false (0) |
| COCCCCCCC1CCc2cc([C@H]3CC[C@](N)(CO)C3)ccc2C1 (stereo in doubt; 25a) | false (0) |
| CCCSCC[C@@H]1CCc2cc([C@H]3CC[C@](N)(CO)C3)ccc2C1 | false (0) |
| COCCCCCC1CCc2cc([C@H]3CC[C@](N)(CO)C3)ccc2C1 (single isomer, unassigned; 24) | true (1) |
| CCOCCCC1CCc2cc([C@H]3CC[C@](N)(CO)C3)ccc2C1 (single isomer, unassigned) | true (1) |

###

# procedure summary: Cardiotoxicity in human iPSC derived cardiomyocytes assessed as change in heart rate at 1 nM measured over 2 hrs by multi-electrode array relative to control
# Format: toxicity, cell-based
# assay conditions: stem cell-derived cardiomyocyte, 0.001 µM

| compound | result units | Activity |
| --- | --- | --- |
| CCCCSC[C@@H]1CCc2cc([C@H]3CC[C@](N)(CO)C3)ccc2C1 | % | -28 |
| CCCCSCC1CCc2cc([C@H]3CC[C@](N)(CO)C3)ccc2C1 (single isomer, unassigned) | % | -14 |
| CCCSCC[C@@H]1CCc2cc([C@H]3CC[C@](N)(CO)C3)ccc2C1 | % | -43 |
